Target: T1, human LILRB3 (human, UniProt O75022 24-631)
T1 construct: Over-expressed on CHO-s cells; also called hLILRB3
Experiment: flow cytometry, LILRB3 CHOs
Listing of recorded binding (fold over iso) by entry.
Quick note: give the figure in fold over iso, leave out the unit.

Record excerpt, results attached:
binder	measure	reported_result
J-04 (antibody, human IgG4 S228P, kappa, V domains shown, Human IgG4 chimera of murine origin) VH: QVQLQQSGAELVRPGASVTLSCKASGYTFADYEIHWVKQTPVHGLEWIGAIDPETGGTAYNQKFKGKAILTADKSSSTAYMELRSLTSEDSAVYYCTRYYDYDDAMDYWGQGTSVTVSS VL: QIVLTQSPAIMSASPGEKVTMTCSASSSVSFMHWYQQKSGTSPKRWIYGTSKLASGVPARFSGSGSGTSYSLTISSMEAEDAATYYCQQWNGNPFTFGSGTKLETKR	binding (fold over iso)	0.9
J-11 (antibody, human IgG4 S228P, kappa, V domains shown, Human IgG4 chimera of murine origin; also called J-11.h) VH: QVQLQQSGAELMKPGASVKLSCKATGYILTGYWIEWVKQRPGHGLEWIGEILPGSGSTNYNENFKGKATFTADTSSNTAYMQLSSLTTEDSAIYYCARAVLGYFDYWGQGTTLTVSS VL: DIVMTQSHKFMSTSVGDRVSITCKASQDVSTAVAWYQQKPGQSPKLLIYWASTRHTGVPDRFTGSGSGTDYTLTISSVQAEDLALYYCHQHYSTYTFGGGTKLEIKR	binding (fold over iso)	1.09
J-19 (antibody, human IgG4 S228P, kappa, V domains shown, Human IgG4 chimera from a rat immunization; also called J-19.h) VH: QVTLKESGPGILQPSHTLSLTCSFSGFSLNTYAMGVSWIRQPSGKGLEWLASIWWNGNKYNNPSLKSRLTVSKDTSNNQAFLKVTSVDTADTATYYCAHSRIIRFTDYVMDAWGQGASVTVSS VL: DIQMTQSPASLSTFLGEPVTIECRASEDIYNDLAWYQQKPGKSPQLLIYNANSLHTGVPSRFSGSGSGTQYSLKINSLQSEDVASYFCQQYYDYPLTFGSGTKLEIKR	binding (fold over iso)	1.09

Need binding (fold over iso) of J-03 (antibody, human IgG4 S228P, kappa, V domains shown, Human IgG4 chimera of murine origin) VH: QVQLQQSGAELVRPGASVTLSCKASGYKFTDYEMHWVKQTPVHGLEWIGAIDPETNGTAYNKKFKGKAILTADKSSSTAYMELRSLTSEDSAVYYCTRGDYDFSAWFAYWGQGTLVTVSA VL: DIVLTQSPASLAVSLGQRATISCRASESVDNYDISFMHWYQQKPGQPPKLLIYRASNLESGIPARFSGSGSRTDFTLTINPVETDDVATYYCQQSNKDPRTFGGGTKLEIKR , thanks.
0.97
